Target: T1, CD20 (human CD20) (human, UniProt P11836 1-297)
T1 construct: whole, on cells; The cell line for each value is named under assay
T1 sequence (looked up): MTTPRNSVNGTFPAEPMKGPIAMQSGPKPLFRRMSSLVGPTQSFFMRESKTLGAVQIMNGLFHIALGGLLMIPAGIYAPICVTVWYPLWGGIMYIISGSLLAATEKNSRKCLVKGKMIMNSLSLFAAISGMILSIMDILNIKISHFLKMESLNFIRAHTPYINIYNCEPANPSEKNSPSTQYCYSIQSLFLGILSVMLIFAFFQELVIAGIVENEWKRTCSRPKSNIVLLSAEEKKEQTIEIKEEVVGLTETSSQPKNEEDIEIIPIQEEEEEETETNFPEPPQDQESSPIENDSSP
Assay: flow cytometry, purified IgG at 10 nM on CHO-S cells overexpressing CD20, FITC-LC detection, ratio over negative control
Give measured CHO-CD20 Cell Binding FOB (Fold Over Background) for each item. Keep answers brief.
Only the number, expressed in fold, is required.

Documented CHO-CD20 Cell Binding FOB (Fold Over Background) of Ab6 (Exemplary Antibody Sequences 6), anti-CD20 antibody (antibody, V domains shown) VH: QITLKESGPTLVKPTQTLTLTCTFSGFSLDTEGVGVGWIRQPPGKALEWLALIYFNDQKRYSPSLKSRLTITKDTSKNQVVLTMTNMDPVDTAVYYCARDTGYSRWYYGMDVWGQGTTVTVSS VL: DIQMTQSPSSVSASVGDRVTITCRASQGISSWLAWYQQKPGKAPKLLIYAASSLQSGVPSRFSGSGSGTDFTLTISSLQPEDFATYYCQQAYAYPITFGGGTKVEIK : 2520

Documented CHO-CD20 Cell Binding FOB (Fold Over Background) of Ab1 (Exemplary Antibody Sequences 1), anti-CD20 antibody (antibody, V domains shown) VH: QVQLQQWGAGLLKPSETLSLTCAVYGGSFSGYYWSWIRQPPGKGLEWIGEIDHSGSTNYNPSLKSRVTISVDTSKNQFSLKLSSVTAADTAVYYCARGGGSWYSNWFDPWGQGTMVTVSS VL: DIQMTQSPSTLSASVGDRVTITCRASQSISSWLAWYQQKPGKAPKLLIYDASSLESGVPSRFSGSGSGTEFTLTISSLQPDDFATYYCQQDRSLPPTFGGGTKVEIK : 813

Documented CHO-CD20 Cell Binding FOB (Fold Over Background) of Ab3 (Exemplary Antibody Sequences 3), anti-CD20 antibody (antibody, V domains shown) VH: QLQLQESGPGLVKPSETLSLTCTVSGGSISSSSYYWGWIRQPPGKGLEWIGSIYYSGSTYYNPSLKSRVTISVDTSKNQFSLKLSSVTAADTAVYYCARETDYSSGMGYGMDVWGQGTTVTVSS VL: DIQMTQSPSSLSASVGDRVTITCRASQSINSYLNWYQQKPGKAPKLLIYAASSLQSGVPSRFSGSGSGTDFTLTISSLQPEDFATYYCQQSLADPFTFGGGTKVEIK : 2000

Documented CHO-CD20 Cell Binding FOB (Fold Over Background) of Ab5 (Exemplary Antibody Sequences 5), anti-CD20 antibody (antibody, V domains shown) VH: QVQLQESGPGLVKPSETLSLTCTVSGGSISSPDHYWGWIRQPPGKGLEWIGSIYASGSTFYNPSLKSRVTISVDTSKNQFSLKLSSVTAADTAVYYCARETDYSSGMGYGMDVWGQGTTVTVSS VL: DIQMTQSPSSLSASVGDRVTITCRASQSINSYLNWYQQKPGKAPKLLIYAASSLQSGVPSRFSGSGSGTDFTLTISSLQPEDFATYYCQQSLADPFTFGGGTKVEIK : 2480

Hey, just so you know, these numbers are from patent US20240115611A1.
